List of kon values.
Target: T1, human LAIR-1-ECD (human, UniProt Q6GTX8 22-165)
T1 construct: Recombinant, expressed in mammalian cells; also called extracellular region of human LAIR-1
T1 chain: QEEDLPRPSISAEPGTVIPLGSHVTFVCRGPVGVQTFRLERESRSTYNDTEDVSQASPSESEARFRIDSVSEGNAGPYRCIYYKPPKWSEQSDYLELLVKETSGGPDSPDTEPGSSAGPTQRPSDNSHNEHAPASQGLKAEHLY
Experiment: SPR (Biacore) as in Example 2
Number only, in M⁻¹ s⁻¹; omit the unit.

The binder listed as anti-LAIR-1 antibody ch47H1 (antibody, V domains shown, The prefix 'ch' is not defined; detected with anti-human Fc secondary antibody) VH: EVQLVETGGGLVQPKGSLKLSCAASGFTFNINAMNWVRQAPGKGLEWVARIRTKNNNYATFYADSVKDRFTISRDDSQSMLYLQMNNLKTDDTAMYYCVRDRAGFFAYWGQGTPVTVSA VL: DIQMTQSPASQSASLGESVTITCLASQTIGTWLGWYRQKPGKSPQLLIYAATSLADGVPSRFSGSGSGTKFSFKISSLQAEDFVIYYCQQLYSTPLTFGSGTKLEIK has a reported kon of 1.5e+06
